Assay: NCI Yeast Anticancer Drug Screen. Data for the mlh1 rad18 strain (AID 175)
Conditions: S. cerevisiae mlh1 rad18 strain growth inhibition; at 50.0 µM; hits give high values
Description: Growth inhibition of yeast strains with defined genetic alterations is measured as a screen for potential anti-cancer activity. Selected strains with alterations in DNA damage repair or cell cycle control were exposed to compounds and growth inhibition was measured relative to vehicle treated controls. The strain used in this assay is mlh1 rad18
Compounds without any hit were thinned out: in the full panel of roughly 79,000, 15% have a hit. The source made the active and inactive calls. Cut-off read from the data, not from the text of the source: active = growth inhibition above about 70%; inactive = the rest.
readout_name: growth inhibition

Please review the entries below; each comes with its answer.
                                   molecule    endpoint_result
0             O=C(/C=C/c1cccs1)c1ccc(Cl)cc1  -4.35% (inactive)
1  Nc1ccc(C(=O)NN2C(=O)C(Cl)C2c2ccccc2Cl)cc1 (stereo not given)   31.5% (inactive)
2  N=c1nc2ccc3ccccc3c2nn1-c1ccc([N+](=O)[O-])cc1   27.2% (inactive)

Request: Name the recorded growth inhibition for CN(C)CCSCC(=O)N1c2ccccc2Sc2ccccc21 .
Result: -4.8% (inactive)

Request: Fill blank: measured growth inhibition of the molecule Nc1nc(-c2ccccc2)c(N=Nc2ccc([N+](=O)[O-])cc2Cl)s1 is ____.
Result: 3.6% (inactive)

Request: # growth inhibition lookup, item CCCCCCCCCCCCCCCCSc1ccc(S(=O)(=O)N(C)C)cc1N
Result: 11.9% (inactive)

Request: I am curious: what growth inhibition value has been reported for CC(C(=O)O)C(C)C(=O)O (stereo not given) ?
Result: 14.2% (inactive)
